Subject of test: SHP2 N‐SH2 domain (Homo sapiens)
Construct: SHP2 N-SH2 domain (1–105), C-SH2 domain (106–220), PTP domain (224–541) and; His6 (pETM22 vector) (N, cleaved yes); made in house; host or cells: E. coli BL21(DE3)
Sequence (Q06124 1-105): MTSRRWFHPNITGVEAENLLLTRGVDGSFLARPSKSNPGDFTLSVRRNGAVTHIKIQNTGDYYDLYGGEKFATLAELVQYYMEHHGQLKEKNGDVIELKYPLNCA
Assay explanation: Fluorescence polarization (FP) binding assay, SHP2 N-SH2 domain
Test conditions: 100 nM FAM-labelled peptide, increasing N-SH2 protein, 50 mM HEPES pH 7.5, 150 mM NaCl, 1 mM EDTA, 0.05% Tween 20, FP at 10 min, three independent experiments in technical triplicates, read-out: K D ± SEM, N‐SH2 (FP)
Non-standard residues stand in square brackets, D forms with d. Residues, ends and D or L forms follow the SMILES beside them. *: point of attachment. 5FAM = O=C1OC2(c3ccc(O)cc3Oc3cc(O)ccc32)c2ccc(C(=O)*)cc21; pY = N[C@@H](Cc1ccc(OP(=O)(O)O)cc1)C(=O)O
Kd reference

Compound	Quantity unit	Kd
CC[C@H](C)[C@H](NC(=O)[C@@H](NC(=O)[C@H](C)NC(=O)[C@H](Cc1ccc(OP(=O)(O)O)cc1)NC(=O)[C@H](C)NC(=O)[C@@H](NC(=O)[C@H](CCC(N)=O)NC(=O)[C@H](CCC(=O)O)NC(=O)c1ccc2c(c1)C(=O)OC21c2ccc(O)cc2Oc2cc(O)ccc21)[C@@H](C)O)[C@@H](C)O)C(=O)N[C@H](C(=O)N[C@@H](Cc1ccccc1)C(=O)N1CCC[C@H]1C(N)=O)C(C)C [compound 4] (5FAM-EQTA[pY]ATIVFP-NH2)	nM	234
CC[C@H](C)[C@H](NC(=O)[C@@H](NC(=O)[C@H](C)NC(=O)[C@H](Cc1ccc(OP(=O)(O)O)cc1)NC(=O)[C@H](CCC(=O)O)NC(=O)[C@@H](NC(=O)[C@H](CCC(N)=O)NC(=O)[C@H](CCC(=O)O)NC(=O)c1ccc2c(c1)C(=O)OC21c2ccc(O)cc2Oc2cc(O)ccc21)[C@@H](C)O)[C@@H](C)O)C(=O)N[C@H](C(=O)N[C@@H](Cc1ccccc1)C(=O)N1CCC[C@H]1C(N)=O)C(C)C [FAM‐ITSM(pTyr), reference compound] (5FAM-EQTE[pY]ATIVFP-NH2)	nM	164

====

Subject of test: SHP2 C‐SH2 domain (Homo sapiens)
Construct: SHP2 N-SH2 domain (1–105), C-SH2 domain (106–220), PTP domain (224–541) and; His6 (pETM22 vector) (N, cleaved yes); made in house; host or cells: E. coli BL21(DE3)
Sequence (Q06124 106-220): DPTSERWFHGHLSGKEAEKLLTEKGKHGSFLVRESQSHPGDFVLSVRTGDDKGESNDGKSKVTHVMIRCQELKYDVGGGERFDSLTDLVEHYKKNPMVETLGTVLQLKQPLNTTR
Assay explanation: Fluorescence polarization (FP) binding assay, SHP2 C-SH2 domain
Test conditions: 100 nM FAM-labelled peptide, increasing C-SH2 protein, 50 mM HEPES pH 7.5, 150 mM NaCl, 1 mM EDTA, 0.05% Tween 20, FP at 10 min, three independent experiments in technical triplicates, read-out: K D ± SEM, C‐SH2 (FP)
Method: buffer and stored in 5 mL binding buffer at 4°C. […] Protein purification was monitored by SDS-PAGE using NuPAGE 4-12% Bis-Tris Protein Gels (Invitrogen) run in MOPS buffer (50 mM MOPS, 50 mM Tris-HCl pH 7.7, 1 mM EDTA, 0.1% SDS) followed by Coomassie staining using Coomassie Brilliant Blue (Roth). […] 4. Fluorescence polarization Fluorescence polarization (FP) was used to measure the binding of FAM-labelled peptides to the SHP2 C-SH2, SHP2 N-SH2, SHP2 PTP, CSK SH2 or Src SH2 domains. […]
pKd: −log10 of the molar value. Non-standard residues stand in square brackets, D forms with d. Residues, ends and D or L forms follow the SMILES beside them. *: point of attachment. 5FAM = O=C1OC2(c3ccc(O)cc3Oc3cc(O)ccc32)c2ccc(C(=O)*)cc21; pY = N[C@@H](Cc1ccc(OP(=O)(O)O)cc1)C(=O)O
Each entry below lists one item and its recorded pKd value.

Compound	pKd
CC[C@H](C)[C@H](NC(=O)[C@@H](NC(=O)[C@H](C)NC(=O)[C@H](Cc1ccc(OP(=O)(O)O)cc1)NC(=O)[C@H](CCC(=O)O)NC(=O)[C@@H](NC(=O)[C@H](CCC(N)=O)NC(=O)c1ccc2c(c1)C(=O)OC21c2ccc(O)cc2Oc2cc(O)ccc21)[C@@H](C)O)C(C)C)C(=O)N[C@@H](CCCCN)C(=O)N[C@@H](Cc1ccccc1)C(=O)N1CCC[C@H]1C(N)=O [compound 14] (5FAM-QTE[pY]AVIKFP-NH2)	7.10
CC[C@H](C)[C@H](NC(=O)[C@H](C)NC(=O)[C@H](C)NC(=O)[C@H](Cc1ccc(OP(=O)(O)O)cc1)NC(=O)[C@H](CCC(=O)O)NC(=O)[C@@H](NC(=O)[C@H](CCC(N)=O)NC(=O)[C@H](CCC(=O)O)NC(=O)c1ccc2c(c1)C(=O)OC21c2ccc(O)cc2Oc2cc(O)ccc21)[C@@H](C)O)C(=O)N[C@H](C(=O)N[C@@H](Cc1ccccc1)C(=O)N1CCC[C@H]1C(N)=O)C(C)C [compound 5] (5FAM-EQTE[pY]AAIVFP-NH2)	6.90
CC[C@H](C)[C@H](NC(=O)[C@@H](NC(=O)[C@H](C)NC(=O)[C@H](Cc1ccc(OP(=O)(O)O)cc1)NC(=O)[C@H](CCC(=O)O)NC(=O)[C@@H](NC(=O)[C@H](CCC(N)=O)NC(=O)c1ccc2c(c1)C(=O)OC21c2ccc(O)cc2Oc2cc(O)ccc21)[C@@H](C)O)[C@@H](C)O)C(=O)N[C@@H](CCCCN)C(=O)N[C@@H](Cc1ccc(O)cc1)C(=O)N1CCC[C@H]1C(N)=O [compound 17] (5FAM-QTE[pY]ATIKYP-NH2)	6.94
CC[C@H](C)[C@H](NC(=O)[C@@H](NC(=O)[C@H](C)NC(=O)[C@H](Cc1ccc(OP(=O)(O)O)cc1)NC(=O)[C@H](C)NC(=O)[C@@H](NC(=O)[C@H](CCC(N)=O)NC(=O)[C@H](CCC(=O)O)NC(=O)c1ccc2c(c1)C(=O)OC21c2ccc(O)cc2Oc2cc(O)ccc21)[C@@H](C)O)[C@@H](C)O)C(=O)N[C@H](C(=O)N[C@@H](Cc1ccccc1)C(=O)N1CCC[C@H]1C(N)=O)C(C)C [compound 4] (5FAM-EQTA[pY]ATIVFP-NH2)	7.02
